Below is a list of entries, each paired with its recorded log10(Kd) value.
Biological target: T1, 14-3-3ζ (human, full-length) (human, UniProt P63104 1-245)
T1 construct: N-terminal glycine retained after TEV cleavage of the His tag; 14-3-3ζ, human, ORF bought from GeneCopoeia, in Gateway pDEST17; full-length; Dimer in the crystal; the ITC stoichiometry counts on the 14-3-3 monomer; also called WT 14-3-3ζ; source: E. coli BL21 (DE3) pLysS, purified (Ni Sepharose, TEV cleavage, second Ni Sepharose pass); not shown: His tag, N-terminal, cleaved
T1 sequence: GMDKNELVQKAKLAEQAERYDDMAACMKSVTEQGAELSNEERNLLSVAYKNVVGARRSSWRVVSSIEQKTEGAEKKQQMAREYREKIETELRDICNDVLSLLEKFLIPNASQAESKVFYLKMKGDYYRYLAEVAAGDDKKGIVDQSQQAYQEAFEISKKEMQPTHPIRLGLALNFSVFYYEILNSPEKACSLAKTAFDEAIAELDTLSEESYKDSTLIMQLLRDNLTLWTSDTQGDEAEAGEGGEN
Assay: ITC; VP-ITC, 25°C; ~1-2 mM peptide titrated in 5 uL aliquots into ~100-200 uM 14-3-3ζ in the cell; 50 mM sodium phosphate, 100 mM NaCl, 1 mM DTT, pH 6.8; one-site model; in duplicate
Settings: both partners purified
Square brackets hold non-standard residues; d marks the D form. Ends that are not written are not given here. pS = N[C@@H](COP(=O)(O)O)C(=O)O
The base-10 logarithm of Kd, taken with Kd in µM, is what appears here.

The cases that follow already have their log10(Kd) on record.
binder: KTPPRKSA[pS]LS-NH2 (N-terminus assumed; SMILES CC(C)C[C@H](NC(=O)[C@H](COP(=O)(O)O)NC(=O)[C@H](C)NC(=O)[C@H](CO)NC(=O)[C@H](CCCCN)NC(=O)[C@H](CCCNC(=N)N)NC(=O)[C@@H]1CCCN1C(=O)[C@@H]1CCCN1C(=O)[C@@H](NC(=O)[C@@H](N)CCCCN)[C@@H](C)O)C(=O)N[C@@H](CO)C(N)=O, Chibby (Cby), human, residues 12-22; free NH2 end; source: synthetic peptide, bought: TUFTS University Core Facility) [pCby 11-mer]
numeric-readout: 1.24

binder: KTPPRKSA[pS]LSNAHSLDR (Chibby (Cby), human, residues 12-29 with L24A; Not in the methods' list of peptides; also called Cby L24A 18-mer; source: synthetic peptide) [Cby 18-mer L24A (phosphorylated)]
numeric-readout: 1.33

Now turn to the next binder.
# input Could you tell me which log10(Kd) is on file for KTPPRKSA[pS]LSNLHSLDR (Chibby (Cby), human, residues 12-29; free NH2 and COOH ends; also called Cby 18-mer WT; WT Cby 18-mer; source: synthetic peptide, bought: GenScript USA Inc) [pCby 18-mer] ?
# output 0.66
